Target: IRAK4 (Homo sapiens, UniProt Q9NWZ3)
Construct: endogenous in cells; host or cells: THP-1 cells
Sequence (Q9NWZ3 1-460): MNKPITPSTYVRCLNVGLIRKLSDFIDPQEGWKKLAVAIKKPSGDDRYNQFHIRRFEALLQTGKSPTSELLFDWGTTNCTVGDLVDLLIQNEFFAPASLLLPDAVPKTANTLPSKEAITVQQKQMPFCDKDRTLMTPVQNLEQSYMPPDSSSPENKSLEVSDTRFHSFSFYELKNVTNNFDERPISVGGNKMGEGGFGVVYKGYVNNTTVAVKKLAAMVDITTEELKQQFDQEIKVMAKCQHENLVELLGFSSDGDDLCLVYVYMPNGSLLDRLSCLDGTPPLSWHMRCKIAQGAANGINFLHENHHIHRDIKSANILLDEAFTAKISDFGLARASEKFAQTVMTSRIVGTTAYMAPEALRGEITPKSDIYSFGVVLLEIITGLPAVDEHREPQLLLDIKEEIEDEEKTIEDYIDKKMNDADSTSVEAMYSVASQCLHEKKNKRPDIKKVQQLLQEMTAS
Assay: LVL THP1 HTRF (THP1 Homogeneous Time Resolved Fluorescence)
Assay type: cell-based
Conditions: THP1 cells, 18 h incubation with compound
# LVL THP1 HTRF YMIN annotations

| molecule | unit | LVL THP1 HTRF YMIN |
| --- | --- | --- |
| C[C@H](C#N)Nc1cc(-n2ncc3cc(C#N)c(N)nc32)ncc1-n1cc(C2CCC(CCN3C[C@@H](C)N(c4ccc(C5CCC(=O)NC5=O)cc4)C[C@@H]3C)CC2)nn1 (stereo partly drawn) | % | 1.3 |
| C[C@H](C#N)Nc1cc(-n2ncc3cc(C#N)cnc32)ncc1-n1cc([C@H]2CC[C@](O)(CCN3CCN(c4ccc(N5CCC(=O)NC5=O)cc4)CC3)CC2)nn1 (single isomer, unassigned) [P-429] | % | 5.4 |
| C[C@H](C#N)Nc1cc(-n2ncc3cc(Cl)cnc32)ncc1-n1cc([C@H]2CC[C@H](CCN3CCN(c4ccc(C5CCC(=O)NC5=O)cc4)CC3)CC2)nn1 (stereo partly drawn) | % | 2.5 |
| C[C@H](C#N)Nc1cc(-n2ncc3cc(C#N)c(N)nc32)ncc1-n1cc([C@H]2CC[C@H](CCN3CCN(c4ccc(N5CCC(=O)NC5=O)cn4)CC3)CC2)nn1 | % | −0.6 |
| C[C@H](C#N)Nc1cc(-n2ncc3cc(C#N)cnc32)ncc1-n1cc([C@H]2CC[C@H](CCN3CC[C@@H](c4ccc([C@@]5(C)CCC(=O)NC5=O)cc4)C[C@@H]3C)CC2)nn1 (single isomer, unassigned) | % | 5.2 |
| C[C@H](C#N)Nc1cc(Nc2ncc(F)cc2F)ncc1-n1cc([C@H]2CC[C@H](CCN3CCN(c4ccc(C5CCC(=O)NC5=O)cc4)CC3)CC2)nn1 (stereo partly drawn) | % | 4.1 |
| C[C@H](C#N)Nc1cc(-n2ncc3cc(C#N)cnc32)ncc1-n1cc([C@H]2CC[C@H](CCN3CCC(c4ccc(N5CCC(=O)NC5=O)cc4)C3)CC2)nn1 (single isomer, unassigned) [P-497] | % | 13.6 |
| C[C@H](C#N)Nc1cc(-n2ncc3cc(C#N)c(N)nc32)ncc1-n1cc([C@H]2CC[C@H](CCN3CC[C@H]4[C@@H]3CCN4c3ccc([C@@]4(C)CCC(=O)NC4=O)cc3)CC2)nn1 (single isomer, unassigned) [P-487] | % | 2.7 |
| C[C@H](C#N)Nc1cc(-n2ncc3cc(C#N)cnc32)ncc1C(=O)N[C@H]1CC[C@H](CCN2CCC(c3ccc([C@@]4(C)CCC(=O)NC4=O)cc3)CC2)CC1 | % | 5.6 |

---

Molecular target: IRAK4 (Homo sapiens, UniProt Q9NWZ3)
Construct: endogenous in cells; host or cells: THP-1 cells
Sequence (Q9NWZ3 1-460): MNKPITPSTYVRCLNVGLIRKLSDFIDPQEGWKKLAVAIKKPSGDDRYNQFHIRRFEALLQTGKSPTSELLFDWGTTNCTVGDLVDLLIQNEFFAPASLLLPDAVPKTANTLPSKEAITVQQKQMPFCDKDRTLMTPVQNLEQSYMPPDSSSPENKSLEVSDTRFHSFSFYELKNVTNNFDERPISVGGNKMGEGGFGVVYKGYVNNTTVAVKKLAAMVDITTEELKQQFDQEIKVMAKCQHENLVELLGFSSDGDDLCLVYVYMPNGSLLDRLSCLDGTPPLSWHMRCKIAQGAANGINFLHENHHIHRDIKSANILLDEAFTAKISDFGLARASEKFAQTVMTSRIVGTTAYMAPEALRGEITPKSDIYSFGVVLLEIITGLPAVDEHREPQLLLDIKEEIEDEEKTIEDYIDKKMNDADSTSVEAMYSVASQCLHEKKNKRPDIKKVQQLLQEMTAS
Assay: LVL THP1 HTRF (THP1 Homogeneous Time Resolved Fluorescence)
Type: cell-based
Conditions: THP1 cells, 18 h incubation with compound, read-out: LVL THP1 HTRF EC50
# reported DC50; entries follow

| compound | DC50 (nM) |
| --- | --- |
| C[C@H](C#N)Nc1cc(-c2ccc3cc(C#N)cnn23)ncc1C(=O)N[C@H]1CC[C@H](CCN2CCN(c3ccc(C4CCC(=O)NC4=O)cc3)CC2)CC1 (stereo partly drawn) | 13 |
| C[C@H](C#N)Nc1cc(-n2ncc3cc(C#N)cnc32)ncc1-n1cc([C@H]2CC[C@H](CCN3CC[C@@H](c4ccc([C@@]5(C)CCC(=O)NC5=O)cc4)C[C@@H]3C)CC2)nn1 (single isomer, unassigned) | 5.7 |
| C[C@H](C#N)Nc1cc(-n2ncc3cc(C#N)cnc32)ncc1-n1cc([C@H]2CC[C@H](CCN3CCC4(c5ccc(N6CCC(=O)NC6=O)cc5)CC4C3)CC2)nn1 (stereo partly drawn) | 87.9 |

---

Target: IRAK4 (Homo sapiens)
Construct: endogenous in cells; host or cells: THP-1 cells
Sequence (Q9NWZ3 1-460): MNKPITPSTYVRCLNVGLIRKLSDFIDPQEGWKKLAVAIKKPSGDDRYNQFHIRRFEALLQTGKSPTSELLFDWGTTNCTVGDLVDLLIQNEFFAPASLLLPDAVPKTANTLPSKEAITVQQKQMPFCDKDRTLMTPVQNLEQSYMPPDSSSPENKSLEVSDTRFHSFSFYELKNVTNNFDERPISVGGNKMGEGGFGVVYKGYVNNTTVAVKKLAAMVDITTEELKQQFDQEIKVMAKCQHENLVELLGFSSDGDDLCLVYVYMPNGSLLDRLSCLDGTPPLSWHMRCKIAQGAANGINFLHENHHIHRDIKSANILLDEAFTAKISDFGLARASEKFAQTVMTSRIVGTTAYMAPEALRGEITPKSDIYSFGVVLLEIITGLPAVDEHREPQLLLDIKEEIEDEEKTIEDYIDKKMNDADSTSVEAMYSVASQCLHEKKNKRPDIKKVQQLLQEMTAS
Test: ALE THP1 HTRF (Advanced Lipoxidation End Product THP1 Homogeneous Time Resolved Fluorescence)
Assay type: cell-based
Conditions: THP1 cells

| compound | target desc | ALE THP1 HTRF YMIN, % |
| --- | --- | --- |
| COc1cc(N2CCN(CCC3CCC(NC(=O)c4cnc(-n5ncc6cc(C#N)cnc65)cc4NC4CC4)CC3)CC2)ccc1C1CCC(=O)NC1=O (stereo not drawn) | IRAK4 (Homo sapiens) | 12.2 |
| CS(=O)(=O)N1CCC(Nc2cc(-n3ncc4cc(C#N)cnc43)ncc2C(=O)N[C@H]2CC[C@H](CCN3CCN(c4ccc(C5CCC(=O)NC5=O)cc4)CC3)CC2)CC1 (stereo partly drawn) | IRAK4 (Homo sapiens) | 7.9 |
| N#Cc1cnc2c(cnn2-c2cc(NC3CCCC3)c(-c3cn([C@H]4CC[C@H](NC(=O)C5CCN(c6ccc7c(c6)C(=O)N(C6CCC(=O)NC6=O)C7)CC5)CC4)nn3)cn2)c1 (stereo partly drawn) | IRAK4 (Homo sapiens) | 26.9 |

---

// ALE THP1 HTRF YMIN lookup, one value per entry
Target: IRAK4 (Homo sapiens)
Construct: endogenous in cells; host or cells: THP-1 cells
Sequence (Q9NWZ3 1-460): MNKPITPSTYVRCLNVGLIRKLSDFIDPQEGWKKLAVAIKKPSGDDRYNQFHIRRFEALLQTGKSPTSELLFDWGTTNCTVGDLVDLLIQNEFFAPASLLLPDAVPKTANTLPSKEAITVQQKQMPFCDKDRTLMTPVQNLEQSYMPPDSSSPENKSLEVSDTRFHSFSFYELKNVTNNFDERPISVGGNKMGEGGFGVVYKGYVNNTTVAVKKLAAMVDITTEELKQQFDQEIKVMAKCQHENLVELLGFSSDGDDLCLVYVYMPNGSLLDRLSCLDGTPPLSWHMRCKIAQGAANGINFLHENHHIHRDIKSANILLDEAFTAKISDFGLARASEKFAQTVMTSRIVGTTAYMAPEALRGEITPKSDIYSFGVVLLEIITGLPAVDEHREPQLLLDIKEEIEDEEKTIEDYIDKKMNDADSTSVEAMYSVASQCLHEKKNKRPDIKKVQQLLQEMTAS
Experiment: ALE THP1 HTRF (Advanced Lipoxidation End Product THP1 Homogeneous Time Resolved Fluorescence)
Assay type: cell-based
Conditions: THP1 cells
metric: ALE THP1 HTRF YMIN (%)

| molecule | metric | endpoint value |
| --- | --- | --- |
| CC1(Nc2cc(-n3ncc4cc(C#N)cnc43)ncc2C(=O)NC2CCC(CCN3CCN(c4ccc(C5CCC(=O)NC5=O)cc4)CC3)CC2)CC1 (centres unmarked) | ALE THP1 HTRF YMIN | 8.3 |
| N#Cc1cnc2c(cnn2-c2cc(NC3CCCC3)c(C(=O)NC3CCC(CCN4CCC(c5ccc(C6CCC(=O)NC6=O)cc5)CC4)CC3)cn2)c1 (centres unmarked) | ALE THP1 HTRF YMIN | 7.7 |
| C[C@H](C#N)Nc1cc(-c2cnc3cc(C#N)cnn23)ncc1C(=O)N[C@H]1CC[C@H](CCN2CCC(c3ccc(C4CCC(=O)NC4=O)cc3)CC2)CC1 (some centres unmarked) | ALE THP1 HTRF YMIN | 11.0 |
| C[C@H](C#N)Nc1cc(-n2ncc3cc(C#N)cnc32)ncc1C(=O)N[C@H]1CC[C@H](CCN2CCN(c3ccc(C4CCC(=O)NC4=O)cc3)[C@H](C)C2)CC1 (some centres unmarked) | ALE THP1 HTRF YMIN | 6.2 |
| N#Cc1cnc2c(cnn2-c2cc(Nc3cnn(CC(F)(F)F)c3)c(C(=O)NC3CCC(CCN4CCN(c5ccc(C6CCC(=O)NC6=O)cc5)CC4)CC3)cn2)c1 (centres unmarked) | ALE THP1 HTRF YMIN | 8.2 |
